- run-description: DPPH free radical scavenging assay (in vitro antioxidant activity)
- test-context: 100 μM DPPH, 30 °C, 15 min
quantity: IC50 (µM)

                                   compound  quantity   val
0  O=C1O[C@H]([C@@H](O)CO)C(O)=C1O [L-ascorbic acid, reference compound]      IC50    23
1  CCC(O)c1ccc(O)cc1 (stereo not drawn) [HPP3]      IC50  19.3
2  CC(O)Cc1ccc(O)cc1 (stereo not drawn) [HPP2]      IC50  18.5

----------
- tgt: tyrosinase (mushroom origin) (Agaricus bisporus)
- Sequence (C7FF04 1-392 limits assumed): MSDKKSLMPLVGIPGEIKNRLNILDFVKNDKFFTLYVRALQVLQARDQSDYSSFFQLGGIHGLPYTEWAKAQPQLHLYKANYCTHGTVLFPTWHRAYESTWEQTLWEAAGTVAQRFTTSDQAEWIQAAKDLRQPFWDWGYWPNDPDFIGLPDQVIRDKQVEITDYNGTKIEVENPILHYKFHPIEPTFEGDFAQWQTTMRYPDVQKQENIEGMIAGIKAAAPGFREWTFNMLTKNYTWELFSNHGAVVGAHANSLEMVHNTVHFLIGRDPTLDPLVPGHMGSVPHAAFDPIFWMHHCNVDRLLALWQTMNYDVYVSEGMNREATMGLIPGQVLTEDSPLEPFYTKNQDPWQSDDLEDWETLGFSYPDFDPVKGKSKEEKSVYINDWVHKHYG
pIC50: −log10 of the molar value.
quantity: pIC50

(I) CC(Cc1ccc(O)cc1)O[C@@H]1C[C@@H](O)[C@H](O)[C@@H](CO)O1 (stereo partly drawn)
(II) CCC(O)c1ccc(O)cc1 (stereo not drawn)
Q: Compare the recorded pIC50 of I and II ; state which is larger. Field: selected label. Fill in the label of the entry you choose.
Result: I
(I: 4.86, II: 4.63)

(I) CC(Cc1ccc(O)cc1)O[C@H]1O[C@H](CO)[C@@H](O)[C@H](O)[C@H]1O (stereo partly drawn) [HPP2G, hydroxyphenyl-2-propanoyl-O-α-glucoside]
(II) CCC(O[C@@H]1C[C@@H](O)[C@H](O)[C@@H](CO)O1)c1ccc(O)cc1 (stereo partly drawn)
Q: // task: argmin of pIC50 over [ I , II ] Reply with the label of the item you choose.
Result: II
(II: 4.51, I: 4.83)

(A) Oc1ccc(O)cc1 [hydroquinone, reference compound]
(B) CCC(O[C@H]1O[C@H](CO)[C@@H](O)[C@H](O)[C@H]1O)c1ccc(O)cc1 (stereo partly drawn)
Q: Just curious, which one has the larger pIC50 reading, A or B ? Answer by stating the label of the chosen item.
Result: A
